Test system: Pseudomonas aeruginosa
Assay: Antibacterial activity against mexB and mexY expressing Pseudomonas aeruginosa PA-A2 harboring GyrA T83I, ParC S87L and IS1001 insertion at position 629 in OprD gene by Etest method
Type: functional
MEASURE_NAME: MIC

Answered cases to consult:
CCN1CCN(C(=O)N[C@@H](C(=O)N[C@@H]2C(=O)N3[C@@H]2SC(C)(C)[C@@H]3C(=O)O)c2ccccc2)C(=O)C1=O = > 256 µg/mL
NCC[C@H](O)C(=O)N[C@@H]1C[C@H](N)[C@@H](O[C@H]2O[C@H](CN)[C@@H](O)[C@H](O)[C@H]2O)[C@H](O)[C@H]1O[C@H]1O[C@H](CO)[C@@H](O)[C@H](N)[C@H]1O = > 256 µg/mL
C[C@H]1[C@H](NC(=O)/C(=N\OC(C)(C)C(=O)O)c2csc(N)n2)C(=O)N1S(=O)(=O)O = > 256 µg/mL
C[C@@H](O)[C@H]1C(=O)N2C(C(=O)O)=C(S[C@@H]3CN[C@H](C(=O)N(C)C)C3)[C@H](C)[C@H]12 = > 32 µg/mL
O=C(O)c1cn(C2CC2)c2cc(N3CCNCC3)c(F)cc2c1=O = > 32 µg/mL
C[C@@H](O)[C@H]1C(=O)N2C(C(=O)O)=C(SCCNC=N)C[C@H]12 [IMIPENEM ANHYDROUS] = > 32 µg/mL

Query string: Fill in the blank: the reported MIC of CO/N=C(\C(=O)N[C@@H]1C(=O)N2C(C(=O)[O-])=C(C[N+]3(C)CCCC3)CS[C@H]12)c1csc(N)n1 [CEFEPIME] is ____.
Result string: > 256 µg/mL

Query string: Fill in the blank: the reported MIC of CC(C)(O/N=C(\C(=O)N[C@@H]1C(=O)N2C(C(=O)[O-])=C(C[n+]3ccccc3)CS[C@H]12)c1csc(N)n1)C(=O)O is ____.
Result string: > 256 µg/mL

Query string: Fill in the blank: the reported MIC of NC[C@H]1O[C@H](O[C@H]2[C@H](O)[C@@H](O[C@H]3O[C@H](CO)[C@@H](O)[C@H](N)[C@H]3O)[C@H](N)C[C@@H]2N)[C@H](N)C[C@@H]1O is ____.
Result string: > 256 µg/mL

====

Tested on: Pseudomonas aeruginosa
Assay: Antibacterial activity against mexB and mexY expressing Pseudomonas aeruginosa PA-A3 harboring GyrA T83I, ParC S87L and IS1001 insertion at position 629 in OprD gene by Etest method
Type: functional
MEASURE_NAME: MIC

Answered cases to consult:
C[C@@H](O)[C@H]1C(=O)N2C(C(=O)O)=C(SCCNC=N)C[C@H]12 [IMIPENEM ANHYDROUS] = > 32 µg/mL
C[C@@H](O)[C@H]1C(=O)N2C(C(=O)O)=C(S[C@@H]3CN[C@H](C(=O)N(C)C)C3)[C@H](C)[C@H]12 = > 32 µg/mL

Continue with the compound presented below.
Query string: Fill in the blank: the reported MIC of CCN1CCN(C(=O)N[C@@H](C(=O)N[C@@H]2C(=O)N3[C@@H]2SC(C)(C)[C@@H]3C(=O)O)c2ccccc2)C(=O)C1=O is ____.
Result string: > 256 µg/mL

====

Tested on: Pseudomonas aeruginosa
Experiment: Antibacterial activity against mexB and mexY expressing Pseudomonas aeruginosa PA-A3 harboring GyrA T83I, ParC S87L and IS1001 insertion at position 629 in OprD gene by Etest method
Format: functional
// reported MIC for each item listed

Answered cases to consult:
NCC[C@H](O)C(=O)N[C@@H]1C[C@H](N)[C@@H](O[C@H]2O[C@H](CN)[C@@H](O)[C@H](O)[C@H]2O)[C@H](O)[C@H]1O[C@H]1O[C@H](CO)[C@@H](O)[C@H](N)[C@H]1O = > 256 µg/mL
O=C(O)c1cn(C2CC2)c2cc(N3CCNCC3)c(F)cc2c1=O = > 32 µg/mL
C[C@H]1[C@H](NC(=O)/C(=N\OC(C)(C)C(=O)O)c2csc(N)n2)C(=O)N1S(=O)(=O)O = > 256 µg/mL
NC[C@H]1O[C@H](O[C@H]2[C@H](O)[C@@H](O[C@H]3O[C@H](CO)[C@@H](O)[C@H](N)[C@H]3O)[C@H](N)C[C@@H]2N)[C@H](N)C[C@@H]1O = > 256 µg/mL
CO/N=C(\C(=O)N[C@@H]1C(=O)N2C(C(=O)[O-])=C(C[N+]3(C)CCCC3)CS[C@H]12)c1csc(N)n1 [CEFEPIME] = > 256 µg/mL

Continue with the compound presented below.
Query string: Fill in the blank: the reported MIC of CC(C)(O/N=C(\C(=O)N[C@@H]1C(=O)N2C(C(=O)[O-])=C(C[n+]3ccccc3)CS[C@H]12)c1csc(N)n1)C(=O)O is ____.
Result string: > 256 µg/mL
